Reference for the values: ChEMBL document CHEMBL1132177

# Study target: Receptor-type tyrosine-protein phosphatase alpha (Homo sapiens)
# Sequence (P18433 whole entry): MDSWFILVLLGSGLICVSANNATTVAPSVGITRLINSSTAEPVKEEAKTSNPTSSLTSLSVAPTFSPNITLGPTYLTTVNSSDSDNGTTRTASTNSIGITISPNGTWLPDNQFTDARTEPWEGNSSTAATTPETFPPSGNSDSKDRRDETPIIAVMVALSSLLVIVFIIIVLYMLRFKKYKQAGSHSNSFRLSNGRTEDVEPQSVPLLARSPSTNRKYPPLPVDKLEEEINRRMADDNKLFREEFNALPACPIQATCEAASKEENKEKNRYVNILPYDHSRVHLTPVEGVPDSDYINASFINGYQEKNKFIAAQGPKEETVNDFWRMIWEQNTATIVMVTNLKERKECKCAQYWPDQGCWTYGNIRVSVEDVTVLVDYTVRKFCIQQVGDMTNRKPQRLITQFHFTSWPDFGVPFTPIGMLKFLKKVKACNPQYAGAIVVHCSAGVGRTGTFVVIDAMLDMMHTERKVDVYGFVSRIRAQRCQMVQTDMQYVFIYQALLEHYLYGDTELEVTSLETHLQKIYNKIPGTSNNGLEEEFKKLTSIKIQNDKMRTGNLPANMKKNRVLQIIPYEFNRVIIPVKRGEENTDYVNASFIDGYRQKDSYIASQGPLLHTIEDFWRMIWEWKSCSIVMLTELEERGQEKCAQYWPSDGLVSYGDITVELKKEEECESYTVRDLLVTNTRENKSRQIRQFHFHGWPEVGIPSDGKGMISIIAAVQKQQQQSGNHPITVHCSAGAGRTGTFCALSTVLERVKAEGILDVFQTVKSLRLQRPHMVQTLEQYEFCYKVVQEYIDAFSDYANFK
Measurement name: IC50 (µM)

[[record]]
smiles_code = "O=C(O)[C@@H](Cc1ccccc1)Oc1c(Br)cc(-c2c3ccccc3c(Br)c3oc4ccccc4c23)cc1Br"
measurement_name = "IC50"
units_text = "µM"
recorded_value = 13


====

Some compounds, each annotated with its measured pIC50.
# Study target: Receptor-type tyrosine-protein phosphatase beta (Homo sapiens)
# Sequence (P23467 whole entry): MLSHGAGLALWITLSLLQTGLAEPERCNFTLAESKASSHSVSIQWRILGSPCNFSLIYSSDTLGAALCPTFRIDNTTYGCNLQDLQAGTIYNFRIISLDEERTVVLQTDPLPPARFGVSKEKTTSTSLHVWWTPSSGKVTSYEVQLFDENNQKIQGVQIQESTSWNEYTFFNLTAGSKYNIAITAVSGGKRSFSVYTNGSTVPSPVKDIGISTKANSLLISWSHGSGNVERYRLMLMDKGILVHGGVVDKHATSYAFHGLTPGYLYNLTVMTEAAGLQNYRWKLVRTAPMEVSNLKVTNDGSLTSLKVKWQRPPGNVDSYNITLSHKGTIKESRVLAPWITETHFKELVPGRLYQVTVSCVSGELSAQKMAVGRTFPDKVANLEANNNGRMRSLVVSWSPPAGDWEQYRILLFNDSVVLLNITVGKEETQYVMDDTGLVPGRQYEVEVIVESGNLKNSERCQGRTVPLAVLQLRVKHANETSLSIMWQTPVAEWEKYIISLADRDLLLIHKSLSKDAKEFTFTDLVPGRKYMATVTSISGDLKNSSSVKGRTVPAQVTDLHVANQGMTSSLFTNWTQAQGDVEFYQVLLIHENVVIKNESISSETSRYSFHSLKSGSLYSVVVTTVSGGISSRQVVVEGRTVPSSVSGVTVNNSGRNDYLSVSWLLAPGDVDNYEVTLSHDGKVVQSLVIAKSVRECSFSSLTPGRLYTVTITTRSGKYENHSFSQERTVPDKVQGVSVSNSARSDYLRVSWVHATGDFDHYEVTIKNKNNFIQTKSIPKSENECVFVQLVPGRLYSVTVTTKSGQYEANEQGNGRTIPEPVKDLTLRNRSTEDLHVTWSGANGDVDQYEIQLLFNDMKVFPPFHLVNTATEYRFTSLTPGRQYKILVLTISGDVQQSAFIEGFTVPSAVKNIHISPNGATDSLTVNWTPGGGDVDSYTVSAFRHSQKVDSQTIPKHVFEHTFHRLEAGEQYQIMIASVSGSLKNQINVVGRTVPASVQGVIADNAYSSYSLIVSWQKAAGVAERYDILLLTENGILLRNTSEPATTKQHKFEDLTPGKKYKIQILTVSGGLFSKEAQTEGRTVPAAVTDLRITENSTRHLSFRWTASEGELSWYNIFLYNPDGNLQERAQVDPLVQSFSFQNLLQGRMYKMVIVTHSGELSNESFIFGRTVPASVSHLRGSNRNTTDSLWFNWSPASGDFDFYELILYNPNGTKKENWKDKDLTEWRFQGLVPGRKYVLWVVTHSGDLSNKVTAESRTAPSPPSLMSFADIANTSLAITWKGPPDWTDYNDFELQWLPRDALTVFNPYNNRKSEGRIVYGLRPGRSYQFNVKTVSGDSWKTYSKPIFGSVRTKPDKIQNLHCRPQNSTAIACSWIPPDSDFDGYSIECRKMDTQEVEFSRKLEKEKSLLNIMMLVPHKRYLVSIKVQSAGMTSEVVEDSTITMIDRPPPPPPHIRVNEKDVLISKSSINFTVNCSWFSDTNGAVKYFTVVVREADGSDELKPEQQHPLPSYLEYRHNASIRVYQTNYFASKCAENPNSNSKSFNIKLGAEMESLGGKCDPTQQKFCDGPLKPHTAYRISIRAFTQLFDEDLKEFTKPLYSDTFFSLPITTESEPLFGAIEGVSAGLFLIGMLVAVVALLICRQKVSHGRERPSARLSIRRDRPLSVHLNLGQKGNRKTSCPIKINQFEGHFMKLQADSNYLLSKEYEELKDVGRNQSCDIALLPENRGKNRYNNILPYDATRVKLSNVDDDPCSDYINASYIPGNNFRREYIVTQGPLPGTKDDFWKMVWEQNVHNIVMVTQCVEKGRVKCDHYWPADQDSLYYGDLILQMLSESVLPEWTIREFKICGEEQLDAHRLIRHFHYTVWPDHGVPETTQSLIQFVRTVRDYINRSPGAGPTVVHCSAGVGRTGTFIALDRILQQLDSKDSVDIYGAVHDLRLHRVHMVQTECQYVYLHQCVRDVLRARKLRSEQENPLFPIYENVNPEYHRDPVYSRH
# Test method notes: The compound was tested in vitro for the inhibitory activity against Protein-tyrosine phosphatase beta (SH-PTP1) (human PTPases.)
pIC50: −log10 of the molar value.
Measurement name: pIC50

[[record]]
smiles_code = "O=C(O)COc1c(Br)cc(-c2c3ccccc3c(Br)c3sc4ccccc4c23)cc1Br"
recorded_value = 6.22

[[record]]
smiles_code = "O=C(O)[C@@H](Cc1ccccc1)Oc1c(Br)cc(-c2c3ccccc3c(Br)c3oc4ccccc4c23)cc1Br"
recorded_value = 6.30


====

# Test method notes: The compound was tested in vitro for the inhibitory activity against human HePTP360 (Hematopoietic protein tyrosine phosphatase)
Some compounds, each annotated with its measured IC50.
Measurement name: IC50 (nM)

[[record]]
smiles_code = "O=C(O)[C@@H](Cc1ccccc1)Oc1c(Br)cc(-c2c3ccccc3c(Br)c3oc4ccccc4c23)cc1Br"
recorded_value = 2100

[[record]]
smiles_code = "O=C(O)COc1c(Br)cc(-c2c3ccccc3c(Br)c3sc4ccccc4c23)cc1Br"
recorded_value = 2700


====

# Study target: Dual specificity protein phosphatase 3 (Homo sapiens, UniProt P51452)
# Sequence (P51452 whole entry): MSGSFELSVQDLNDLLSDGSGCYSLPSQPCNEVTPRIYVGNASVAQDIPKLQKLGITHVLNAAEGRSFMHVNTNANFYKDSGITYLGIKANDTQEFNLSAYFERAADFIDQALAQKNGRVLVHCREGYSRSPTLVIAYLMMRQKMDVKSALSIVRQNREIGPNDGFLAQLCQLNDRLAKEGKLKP
Some molecules, each annotated with its measured IC50.
Measurement name: IC50 (µM)

[[record]]
smiles_code = "O=C(O)[C@@H](Cc1ccccc1)Oc1c(Br)cc(-c2c3ccccc3c(Br)c3oc4ccccc4c23)cc1Br"
measurement_name = "IC50"
recorded_value = 11

[[record]]
smiles_code = "O=C(O)COc1c(Br)cc(-c2c3ccccc3c(Br)c3sc4ccccc4c23)cc1Br"
measurement_name = "IC50"
recorded_value = 7.9


====

Some compounds, each annotated with its measured pIC50.
# Study target: UniProt P08575
# Sequence (P08575 whole entry): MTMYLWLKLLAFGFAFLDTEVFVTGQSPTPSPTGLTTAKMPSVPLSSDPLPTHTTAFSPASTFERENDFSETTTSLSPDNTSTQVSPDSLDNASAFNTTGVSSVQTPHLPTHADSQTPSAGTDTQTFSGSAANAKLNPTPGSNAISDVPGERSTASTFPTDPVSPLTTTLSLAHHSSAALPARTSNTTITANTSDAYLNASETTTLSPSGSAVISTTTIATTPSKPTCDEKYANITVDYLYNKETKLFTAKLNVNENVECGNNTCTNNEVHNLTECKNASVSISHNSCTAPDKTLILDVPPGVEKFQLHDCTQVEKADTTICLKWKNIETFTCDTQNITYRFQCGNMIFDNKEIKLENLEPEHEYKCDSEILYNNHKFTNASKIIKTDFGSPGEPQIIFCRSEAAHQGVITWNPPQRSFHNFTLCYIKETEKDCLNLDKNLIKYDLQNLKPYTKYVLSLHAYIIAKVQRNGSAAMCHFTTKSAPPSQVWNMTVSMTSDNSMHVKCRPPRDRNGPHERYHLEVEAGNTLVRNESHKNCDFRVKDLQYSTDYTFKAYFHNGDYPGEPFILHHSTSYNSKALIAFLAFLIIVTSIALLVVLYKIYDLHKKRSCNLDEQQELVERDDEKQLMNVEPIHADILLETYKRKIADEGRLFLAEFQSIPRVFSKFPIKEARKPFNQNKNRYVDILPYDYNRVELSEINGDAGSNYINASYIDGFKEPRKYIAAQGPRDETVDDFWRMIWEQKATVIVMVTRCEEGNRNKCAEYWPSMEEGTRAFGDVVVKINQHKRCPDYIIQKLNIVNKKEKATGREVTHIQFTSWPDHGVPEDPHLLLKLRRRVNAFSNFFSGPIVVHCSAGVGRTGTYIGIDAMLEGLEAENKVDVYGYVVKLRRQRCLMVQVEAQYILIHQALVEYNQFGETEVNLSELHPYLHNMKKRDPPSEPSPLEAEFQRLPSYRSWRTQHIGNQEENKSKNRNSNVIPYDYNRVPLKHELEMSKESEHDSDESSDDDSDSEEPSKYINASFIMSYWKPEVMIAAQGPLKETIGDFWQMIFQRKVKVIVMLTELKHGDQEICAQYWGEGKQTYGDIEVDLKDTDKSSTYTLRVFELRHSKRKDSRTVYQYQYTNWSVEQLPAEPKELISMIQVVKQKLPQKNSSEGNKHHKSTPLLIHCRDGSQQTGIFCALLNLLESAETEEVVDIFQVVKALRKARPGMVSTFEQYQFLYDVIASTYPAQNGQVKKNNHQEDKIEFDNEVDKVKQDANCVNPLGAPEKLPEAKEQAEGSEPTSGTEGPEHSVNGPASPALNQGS
pIC50: −log10 of the molar value.
Measurement name: pIC50

[[record]]
smiles_code = "O=C(O)[C@@H](Cc1ccccc1)Oc1c(Br)cc(-c2c3ccccc3c(Br)c3oc4ccccc4c23)cc1Br"
measurement_name = "pIC50"
recorded_value = 5.20

[[record]]
smiles_code = "O=C(O)COc1c(Br)cc(-c2c3ccccc3c(Br)c3sc4ccccc4c23)cc1Br"
measurement_name = "pIC50"
recorded_value = 5.04

